Tested on: PF3D7_0420300 AP2 domain 1 (GST-tagged)
Test: gcPBM binding intensity (ln(normalized median fluorescence intensity)); higher = stronger DNA binding
The full ranking holds about 25,000 sequences; the median of “ln(normalized median fluorescence intensity)” is about 9.3, and the highest 2% start at about 10. The list comes from a sample in which the highest values are over-represented; it also holds close analogues and randomly drawn sequences.
reported_metric: gcPBM binding intensity (ln)
Reply with just the number.

Sample answers from the record:
chain_sequence: AAATAAAAAACAGTGGCACACATTATGTATCCACCT [CACACA_site3756]
system_under_test: PF3D7_0420300 AP2 domain 1 (GST-tagged)
gcPBM binding intensity (ln): 9.32

chain_sequence: TCTCATAGTAAACACACACACACACCCACATATATA [CACACA_site5034]
system_under_test: PF3D7_0420300 AP2 domain 1 (GST-tagged)
gcPBM binding intensity (ln): 10.3

chain_sequence: AAAAAAAAAGTATTATGTACATAAAAATAAAAAAAT [XGTACX_site4166]
system_under_test: PF3D7_0420300 AP2 domain 1 (GST-tagged)
gcPBM binding intensity (ln): 9.42

chain_sequence: TCTCATAGGAAACACACACACACACCCACATATATA [CACACA_site1738]
system_under_test: PF3D7_0420300 AP2 domain 1 (GST-tagged)
gcPBM binding intensity (ln): 10.2

Return the recorded gcPBM binding intensity (ln) value; entry: TTTCCCATAGGAAAAACACACATATATTATATATAA [CACACA_site1981]
9.12

* * *

Tested on: PF3D7_0420300 AP2 domain 1 (GST-tagged)
Experiment: gcPBM binding intensity (ln(normalized median fluorescence intensity)); higher = stronger DNA binding
Over roughly 25,000 sequences, “ln(normalized median fluorescence intensity)” has its median near 9.3; the highest 2% begin near 10. The sample holds the highest values, similar sequences and a random draw of the others, so the mix is not that of the screen.
// reported gcPBM binding intensity (ln) per item
Number, no unit, nothing else.

chain_sequence: ATAATAATATAAAAATGTACATATATTTATAATTGT [XGTACX_site3429]
reported_metric: gcPBM binding intensity (ln)
reported_measurement: 9.23

Give gcPBM binding intensity (ln) for AAAAAAAAATATATAAACACACATATTTATATACAC [GTGCAC_negctrl_site545]
9.61

For the sequence AAGAAATATTTATACACACACACAAACATATATATA [CACACA_site1912] , report gcPBM binding intensity (ln).
10.2

Given AAAAAAAAAACATACACACACACAAATATTTATATA [CACACA_site437] , respond with its gcPBM binding intensity (ln).
10.1

Give reported gcPBM binding intensity (ln) value for CATAAATACAAATATACACACATATTTATATTTATA [CACACA_site7277]
9.54

Report gcPBM binding intensity (ln) for GTCACAAAATAAATTAAACACACAACATCATATATG [CACACA_site8182]
9.65

Given the sequence AATATATAAGTGTTGTGTACTAAAGTATTTTCCTAT [XGTACX_site1622] , write its reported gcPBM binding intensity (ln).
9.5

Give the measured gcPBM binding intensity (ln) for GAAATAGAGAGACACACACACATATATTTATGTATT [CACACA_site7794]
9.93

Look up gcPBM binding intensity (ln) of AATATGTGAATATAATCACACACAATACGGAAACAC [CACACA_site8875] and report it.
10.1
